target: Tyrosine-protein kinase Fyn (Homo sapiens); assay: Inhibition of human his-tagged full length Fyn active enzyme using KVEKIGEGTYGVVYK substrate by scintillation counting analysis
quantity: ID50 (nM)
Write the answer as a number in nM, unit excluded.

# query: ID50 of entry NS(=O)(=O)c1ccc(Nc2nc(N3CCOCC3)nc3[nH]cnc23)cc1
500

Please do the same for Oc1cccc(Nc2nc(NCc3ccccc3)nc3[nH]cnc23)c1 as well.
4100

Another compound to look at: CC(C)CCNc1nc(Nc2cccc(O)c2)c2nc[nH]c2n1
1700

Same for OCCN1CCN(c2nc(Nc3ccccc3)c3nc[nH]c3n2)CC1
4200

Queued: COc1ccc2c(Nc3ccc(Cl)cc3Cl)c(C#N)cnc2c1
2000

Follow-up entry: CNc1nc(Nc2cccc(O)c2)c2nc[nH]c2n1
3600

Next entry: NS(=O)(=O)c1ccc(Nc2nc(N3CCN(CCO)CC3)nc3[nH]cnc23)cc1
4800

Follow-up item: COc1cc2ncc(C#N)c(Nc3ccc(Cl)cc3Cl)c2cc1OC
220

* * *

Hi there, I'd appreciate the recorded ID50 for every entry that follows.
molecular target: Proto-oncogene tyrosine-protein kinase Src (Homo sapiens); experiment: Inhibition of human his-tagged full length Src active enzyme using KVEKIGEGTYGVVYK substrate by scintillation counting analysis
Respond numerically; units are nM and should not be typed.

// returns reported ID50 for input COc1ccc2c(Nc3ccc(Cl)cc3Cl)c(C#N)cnc2c1
200

Now consider NS(=O)(=O)c1ccc(Nc2nc(N3CCOCC3)nc3[nH]cnc23)cc1 and answer again.
900

Likewise for COc1cc2ncc(C#N)c(Nc3ccc(Cl)cc3Cl)c2cc1OC ?
30

Then this compound: Oc1cccc(Nc2nc(NCc3ccccc3)nc3[nH]cnc23)c1
3700

Now the same for CC(C)CCNc1nc(Nc2cccc(O)c2)c2nc[nH]c2n1
1700

Query OCCN1CCN(c2nc(Nc3ccccc3)c3nc[nH]c3n2)CC1 next
4200

Consider next the compound NS(=O)(=O)c1ccc(Nc2nc(N3CCN(CCO)CC3)nc3[nH]cnc23)cc1 in the same way.
7400

* * *

test: Selectivity index, ratio of CC50 for African green monkey Vero B cells to EC50 for DENV serotype 2 strain New Guinea V
I'd be grateful if you could share measured Ratio CC50/EC50 for these entries.
When you answer, write just the number.

What measured Ratio CC50/EC50 goes with CC(C)CCNc1nc(Nc2cccc(O)c2)c2nc[nH]c2n1 ?
8

Then what about the compound CC(=O)c1ccc(Nc2nc(NCCO)nc3[nH]cnc23)cc1 ?
2

CNc1nc(Nc2cccc(O)c2)c2nc[nH]c2n1 ?
32

Entry to check: CC(=O)c1ccc(Nc2nc(NCCC(C)C)nc3[nH]cnc23)cc1
1

* * *

test: Cytotoxicity against african green monkey Vero B cells; format: cell-based; conditions: chlorocebus sabaeus
quantity: log10(CC50) (log10 of the value in µM)
Could you please treat all values as log10 of CC50 in µM?

Data request, read-out log10(CC50), for CC(=O)c1ccc(Nc2nc(NCCC(C)C)nc3[nH]cnc23)cc1
1.93

Entry to check: CC(=O)c1ccc(Nc2nc(NCCO)nc3[nH]cnc23)cc1
2.20

Further, for NS(=O)(=O)c1ccc(Nc2nc(N3CCOCC3)nc3[nH]cnc23)cc1 ?
2.57

Now the molecule CC(C)CCNc1nc(Nc2cccc(O)c2)c2nc[nH]c2n1
2.18

Let us now turn to Cc1cc(OCc2ccc(F)cc2F)cc(=O)n1Cc1cn(Cc2cccc(C(F)(F)F)c2)nn1
1.60

COc1ccc2c(Nc3ccc(Cl)cc3Cl)c(C#N)cnc2c1 ?
1.28

Also CNc1nc(Nc2cccc(O)c2)c2nc[nH]c2n1 ?
2.23

* * *

experiment: Cytotoxicity against african green monkey Vero B cells; type: cell-based; details: chlorocebus sabaeus
Assign labels as follows, please: label 1 for CC50 below 400 µM; label 0 for CC50 equal to or exceeding 400 µM.

In plain terms, does COc1ccc2c(Nc3ccc(N4CCN(C)CC4)cc3)c(C#N)cnc2c1 come in under 400 µM for CC50?
label 1

Same question for NS(=O)(=O)c1ccc(Nc2nc(N3CCN(CCO)CC3)nc3nc[nH]c23)cc1 please.
label 0

Would you mind doing OCCN1CCN(c2nc(Nc3ccccc3)c3nc[nH]c3n2)CC1 as well?
label 0

Also need Cc1cc(OCc2ccc(F)cc2F)cc(=O)n1Cc1cn(Cc2cccc(Br)c2)nn1 , thanks.
label 1

* * *

tested on: dengue virus type 2; test: Inhibition of DENV2 His- and FLAG-tagged NS3 and NS5 protein interaction at 500 uM after 1 hr by alphascreen assay
Activity calls are given as the source filed them. The rule behind the calls is not given here.
quantity: inhibition

Consider the worked cases shown below.
smiles.structure	inhibition
OCCN1CCN(c2nc(Nc3ccccc3)c3nc[nH]c3n2)CC1	Active
CC(=O)c1ccc(Nc2nc(NCCO)nc3[nH]cnc23)cc1	Active
CNc1nc(Nc2cccc(O)c2)c2nc[nH]c2n1	Active
Oc1cccc(Nc2nc(NCc3ccccc3)nc3[nH]cnc23)c1	Active
CNc1nc(Nc2ccc(C(C)=O)cc2)c2nc[nH]c2n1	Active
CC(=O)c1ccc(Nc2nc(NCCC(C)C)nc3[nH]cnc23)cc1	Active
NS(=O)(=O)c1ccc(Nc2nc(N3CCOCC3)nc3[nH]cnc23)cc1	Active
CC(C)CCNc1nc(Nc2cccc(O)c2)c2nc[nH]c2n1	Active

Let's switch to this molecule now.
// inhibition lookup, key: NS(=O)(=O)c1ccc(Nc2nc(N3CCN(CCO)CC3)nc3[nH]cnc23)cc1
Active

* * *

experiment: Selectivity index, ratio of CC50 for African green monkey Vero B cells to EC50 for DENV serotype 2 strain New Guinea V
quantity: Ratio CC50/EC50

Look up Ratio CC50/EC50: NC(=O)c1ncn([C@@H]2O[C@H](CO)[C@@H](O)[C@H]2O)n1 [RIBAVIRIN]
>10

Also CNc1nc(Nc2ccc(C(C)=O)cc2)c2nc[nH]c2n1 , if possible.
>4

Input Oc1cccc(Nc2nc(NCc3ccccc3)nc3[nH]cnc23)c1
>2

* * *

For each entry below, report its CC50 value.
assay: Cytotoxicity against african green monkey Vero B cells; format: cell-based; settings: chlorocebus sabaeus

Value lookup for CC50; key = COc1ccc(Cn2c(C)cc(OCc3cccc(F)c3)cc2=O)cc1
< 6.4 µM

Next record, please: COc1cc2ncc(C#N)c(Nc3ccc(Cl)cc3Cl)c2cc1OC
< 5.7 µM

Request: Oc1cccc(Nc2nc(NCc3ccccc3)nc3[nH]cnc23)c1
> 150 µM

One more molecule: CNc1nc(Nc2ccc(C(C)=O)cc2)c2nc[nH]c2n1
> 177 µM
